Task for the reader: assign each of the following sequences its reported furin cleavage Z-score.
ASSAY_SYSTEM: furin, P09958;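 also: purified furin at 1:10 enzyme:substrate in 50 mM HEPES pH 7.5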
Sequence (P09958 whole entry): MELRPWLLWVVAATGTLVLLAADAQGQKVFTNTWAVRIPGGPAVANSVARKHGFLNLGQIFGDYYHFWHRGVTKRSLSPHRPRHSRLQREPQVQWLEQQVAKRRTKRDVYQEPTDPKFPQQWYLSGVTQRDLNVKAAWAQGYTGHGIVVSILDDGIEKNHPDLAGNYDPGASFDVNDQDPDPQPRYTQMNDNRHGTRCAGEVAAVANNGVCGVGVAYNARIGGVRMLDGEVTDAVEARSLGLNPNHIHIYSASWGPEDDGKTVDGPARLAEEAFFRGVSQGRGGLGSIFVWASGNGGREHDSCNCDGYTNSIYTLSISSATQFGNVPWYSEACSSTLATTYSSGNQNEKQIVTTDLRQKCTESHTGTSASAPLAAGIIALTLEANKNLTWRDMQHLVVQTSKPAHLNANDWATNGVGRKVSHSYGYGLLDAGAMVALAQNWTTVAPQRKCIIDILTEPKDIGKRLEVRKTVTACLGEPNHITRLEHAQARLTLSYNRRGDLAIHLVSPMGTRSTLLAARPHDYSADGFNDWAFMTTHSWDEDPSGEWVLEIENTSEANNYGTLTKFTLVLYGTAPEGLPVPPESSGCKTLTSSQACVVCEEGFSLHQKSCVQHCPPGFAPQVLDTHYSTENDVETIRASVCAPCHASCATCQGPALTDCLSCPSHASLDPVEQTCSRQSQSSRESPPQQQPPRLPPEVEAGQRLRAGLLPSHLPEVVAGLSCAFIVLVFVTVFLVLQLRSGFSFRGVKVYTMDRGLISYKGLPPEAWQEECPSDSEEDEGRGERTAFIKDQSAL
MEASUREMENT_NOTES: furin cleavage Z-score vs untreated control; higher = more cleavage, active = 3.5 or more, inactive = 1 or less, 8 variable residues between constant flanks
MEASUREMENT_CONTEXT: 15 min
The list shows a part of the results. The hit rate among all sequences tested is not known here.
Give bare numbers.

State recorded furin cleavage Z-score for all listed sequences.
1. CAPGGGQIVGAGNASASA [HC173]
2. CAPTPCSAHLAGNASASA [HC2479]
3. CATTPCNGSWAGNASASA [HC78]
4. CALPYIEQGMAGNASASA [HC1018]

Marked response:
[-2.32, 0.764, 0.152, -0.653]
